Values were extracted from patent US10414769B2.

Target: EPHB2 (Homo sapiens, UniProt P29323)
Construct: purchased Life Technologies PV 3625
Sequence (P29323 19-1055): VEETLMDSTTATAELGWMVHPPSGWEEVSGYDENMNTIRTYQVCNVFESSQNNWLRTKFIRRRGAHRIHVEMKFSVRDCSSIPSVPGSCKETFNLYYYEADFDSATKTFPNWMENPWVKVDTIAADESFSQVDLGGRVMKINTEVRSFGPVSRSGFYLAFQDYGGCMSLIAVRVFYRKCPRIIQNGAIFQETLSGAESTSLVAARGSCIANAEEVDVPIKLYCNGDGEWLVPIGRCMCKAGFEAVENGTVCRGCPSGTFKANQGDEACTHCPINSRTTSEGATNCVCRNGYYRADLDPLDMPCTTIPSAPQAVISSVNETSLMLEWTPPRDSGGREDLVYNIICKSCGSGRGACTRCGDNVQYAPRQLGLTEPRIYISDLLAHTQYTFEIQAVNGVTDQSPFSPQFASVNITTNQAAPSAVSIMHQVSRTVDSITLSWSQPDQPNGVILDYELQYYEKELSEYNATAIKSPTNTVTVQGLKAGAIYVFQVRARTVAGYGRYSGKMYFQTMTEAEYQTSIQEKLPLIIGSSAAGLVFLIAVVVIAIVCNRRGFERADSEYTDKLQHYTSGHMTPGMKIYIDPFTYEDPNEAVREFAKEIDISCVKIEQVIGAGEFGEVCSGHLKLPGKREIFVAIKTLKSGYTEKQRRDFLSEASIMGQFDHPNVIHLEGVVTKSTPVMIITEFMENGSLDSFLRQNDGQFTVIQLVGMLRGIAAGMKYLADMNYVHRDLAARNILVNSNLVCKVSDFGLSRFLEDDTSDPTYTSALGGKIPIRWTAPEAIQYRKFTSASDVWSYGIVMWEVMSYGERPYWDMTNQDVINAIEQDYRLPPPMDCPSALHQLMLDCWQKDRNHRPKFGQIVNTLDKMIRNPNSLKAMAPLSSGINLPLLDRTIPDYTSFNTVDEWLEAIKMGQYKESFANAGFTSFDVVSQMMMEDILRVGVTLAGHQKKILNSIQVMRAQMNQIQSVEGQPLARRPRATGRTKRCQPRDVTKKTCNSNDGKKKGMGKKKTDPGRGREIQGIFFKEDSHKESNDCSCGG
Test: Z'-LYTE kinase selectivity assay EPHB2
Assay type: biochemical
Lab note: compare inhibition at 1 µM against 70%. Equal or greater, write t. Smaller, write f.

compound	group
CC(O)CN1CCN(CCn2ccc(Nc3ncc4c(n3)-c3c(nn(C)c3-c3ccccc3)C[C@H]4C)n2)CC1 (stereo partly shown) [Compound I-7]	t
C[C@@H]1Cc2nn(C)c(-c3ccccc3)c2-c2nc(Nc3ccn(CCN4CCN(CC5CCCO5)CC4)n3)ncc21 (stereo partly shown) [Compound I-9]	t
C[C@@H]1Cc2nn(C)c(-c3ccccc3)c2-c2nc(Nc3ccn(CCN4CCN(CC(=O)OC5CCOCC5)CC4)n3)ncc21 [Compound I-8]	f
C[C@@H]1Cc2nn(C)c(-c3ccccc3)c2-c2nc(Nc3ccn(CCN4CCN(C)CC4)n3)ncc21 [Compound I-1]	f
COCCN1CCN(CCn2ccc(Nc3ncc4c(n3)-c3c(nn(C)c3-c3ccccc3)C[C@H]4C)n2)CC1 [Compound I-11]	f
C[C@@H]1Cc2nn(C)c(-c3ccccc3)c2-c2nc(Nc3ccn(CCN4CCN(CC(C)(C)O)CC4)n3)ncc21 [Compound I-3]	t

* * *

// reported inhibition at 1 µM for each item listed
Molecular target: MAP2K1 (MEK1) (Homo sapiens, UniProt Q02750)
Construct: purchased Life Technologies PV 3303
Sequence (Q02750 whole entry): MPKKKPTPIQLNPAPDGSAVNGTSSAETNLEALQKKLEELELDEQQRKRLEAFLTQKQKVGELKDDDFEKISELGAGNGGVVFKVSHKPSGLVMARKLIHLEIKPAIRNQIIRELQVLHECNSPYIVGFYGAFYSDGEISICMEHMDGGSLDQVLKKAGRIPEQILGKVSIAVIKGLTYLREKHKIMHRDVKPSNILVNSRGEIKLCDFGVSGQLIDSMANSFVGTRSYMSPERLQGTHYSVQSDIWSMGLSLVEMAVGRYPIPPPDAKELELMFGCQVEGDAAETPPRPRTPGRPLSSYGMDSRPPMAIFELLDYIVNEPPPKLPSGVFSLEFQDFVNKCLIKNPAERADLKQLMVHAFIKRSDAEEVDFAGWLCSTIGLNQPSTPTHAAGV
Assay: Z'-LYTE kinase selectivity assay MAP2K1
Format: biochemical
quantityName: inhibition at 1 µM (%)

compound	quantityName	outputUnit	observed
CC(O)CN1CCN(CCn2ccc(Nc3ncc4c(n3)-c3c(nn(C)c3-c3ccccc3)C[C@H]4C)n2)CC1 (stereo partly shown)	inhibition at 1 µM	%	40
C[C@@H]1Cc2nn(C)c(-c3ccccc3)c2-c2nc(Nc3ccn(CCN4CCN(CC5CCCO5)CC4)n3)ncc21 (stereo partly shown)	inhibition at 1 µM	%	36
COCCN1CCN(CCn2ccc(Nc3ncc4c(n3)-c3c(nn(C)c3-c3ccccc3)C[C@H]4C)n2)CC1	inhibition at 1 µM	%	39
C[C@@H]1Cc2nn(C)c(-c3ccccc3)c2-c2nc(Nc3ccn(CCN4CCN(CC(C)(C)O)CC4)n3)ncc21	inhibition at 1 µM	%	50
C[C@@H]1Cc2nn(C)c(-c3ccccc3)c2-c2nc(Nc3ccn(CCN4CCN(CC(=O)OC5CCOCC5)CC4)n3)ncc21	inhibition at 1 µM	%	48
C[C@@H]1Cc2nn(C)c(-c3ccccc3)c2-c2nc(Nc3ccn(CCN4CCOCC4)n3)ncc21	inhibition at 1 µM	%	58
C[C@@H]1Cc2nn(C)c(-c3ccccc3)c2-c2nc(Nc3ccn(CCN4CCN(C)CC4)n3)ncc21	inhibition at 1 µM	%	34

* * *

// reported inhibition at 1 µM for each item listed
Target: FRAP1 (mTOR) (Homo sapiens)
Construct: purchased Life Technologies PR8683B
Assay: Z'-LYTE kinase selectivity assay FRAP1 (mTOR)
Format: biochemical

compound	inhibition at 1 µM [%]
C[C@@H]1Cc2nn(C)c(-c3ccccc3)c2-c2nc(Nc3ccn(CCN4CCN(CC(=O)OC5CCOCC5)CC4)n3)ncc21 [Compound I-8]	-8
C[C@@H]1Cc2nn(C)c(-c3ccccc3)c2-c2nc(Nc3ccn(CCN4CCN(C)CC4)n3)ncc21 [Compound I-1]	-6
C[C@@H]1Cc2nn(C)c(-c3ccccc3)c2-c2nc(Nc3ccn(CCN4CCN(CC5CCCO5)CC4)n3)ncc21 (stereo partly shown) [Compound I-9]	-12
C[C@@H]1Cc2nn(C)c(-c3ccccc3)c2-c2nc(Nc3ccn(CCN4CCOCC4)n3)ncc21 [Compound I-2]	1
COCCN1CCN(CCn2ccc(Nc3ncc4c(n3)-c3c(nn(C)c3-c3ccccc3)C[C@H]4C)n2)CC1 [Compound I-11]	-11
CC(O)CN1CCN(CCn2ccc(Nc3ncc4c(n3)-c3c(nn(C)c3-c3ccccc3)C[C@H]4C)n2)CC1 (stereo partly shown) [Compound I-7]	3
C[C@@H]1Cc2nn(C)c(-c3ccccc3)c2-c2nc(Nc3ccn(CCN4CCN(CC(C)(C)O)CC4)n3)ncc21 [Compound I-3]	-10

* * *

System: TC-71 (EWING'S sarcoma) cells
Assay: Cell proliferation assay TC-71 (Alamar Blue)
Type: cell-based
Conditions: anti-proliferative effect, TC-71 cells, 72 h; read-out: TC71 EC50
// reported EC50 for each item listed
quantityName: EC50

compound	observed
C[C@@H]1Cc2nn(C)c(-c3ccccc3)c2-c2nc(Nc3ccn(CCN4CCN(CC(C)(C)O)CC4)n3)ncc21	2.67 nM
C[C@@H]1Cc2nn(C)c(-c3ccccc3)c2-c2nc(Nc3ccn(CCN4CCN(CCO)CC4)n3)ncc21	5.93 nM
CC(O)CN1CCN(CCn2ccc(Nc3ncc4c(n3)-c3c(nn(C)c3-c3ccccc3)C[C@H]4C)n2)CC1 (stereo partly shown)	2.17 nM
C[C@@H]1Cc2nn(C)c(-c3ccccc3)c2-c2nc(Nc3ccn(CCN4CCOCC4)n3)ncc21	2.35 nM

* * *

// reported inhibition at 1 µM for each item listed
Molecular target: MAPK14 (p38 alpha) (Homo sapiens)
Construct: purchased Life Technologies PV 3304
Sequence (Q16539 whole entry): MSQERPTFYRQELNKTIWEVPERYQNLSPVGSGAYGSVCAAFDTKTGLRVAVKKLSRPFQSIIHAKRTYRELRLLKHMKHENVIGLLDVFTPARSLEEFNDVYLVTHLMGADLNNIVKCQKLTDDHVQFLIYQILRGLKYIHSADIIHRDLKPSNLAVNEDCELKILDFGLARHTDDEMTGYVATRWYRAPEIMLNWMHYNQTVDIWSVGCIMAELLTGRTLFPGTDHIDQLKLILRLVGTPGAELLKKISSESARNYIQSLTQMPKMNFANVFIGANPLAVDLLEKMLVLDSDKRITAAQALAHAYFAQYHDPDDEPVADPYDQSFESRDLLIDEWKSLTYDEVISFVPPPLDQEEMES
Experiment: Z'-LYTE kinase selectivity assay MAPK14
Assay type: biochemical

compound	outputUnit	inhibition at 1 µM
C[C@@H]1Cc2nn(C)c(-c3ccccc3)c2-c2nc(Nc3ccn(CCN4CCN(CC5CCCO5)CC4)n3)ncc21 (stereo partly drawn) [Compound I-9]	%	4
C[C@@H]1Cc2nn(C)c(-c3ccccc3)c2-c2nc(Nc3ccn(CCN4CCN(CC(=O)OC5CCOCC5)CC4)n3)ncc21 [Compound I-8]	%	-5
CC(O)CN1CCN(CCn2ccc(Nc3ncc4c(n3)-c3c(nn(C)c3-c3ccccc3)C[C@H]4C)n2)CC1 (stereo partly drawn) [Compound I-7]	%	2

* * *

// reported inhibition at 1 µM for each item listed
Target: EGFR (ErbB1) (Homo sapiens, UniProt P00533)
Construct: purchased Life Technologies PV 3872
Sequence (P00533 25-1210): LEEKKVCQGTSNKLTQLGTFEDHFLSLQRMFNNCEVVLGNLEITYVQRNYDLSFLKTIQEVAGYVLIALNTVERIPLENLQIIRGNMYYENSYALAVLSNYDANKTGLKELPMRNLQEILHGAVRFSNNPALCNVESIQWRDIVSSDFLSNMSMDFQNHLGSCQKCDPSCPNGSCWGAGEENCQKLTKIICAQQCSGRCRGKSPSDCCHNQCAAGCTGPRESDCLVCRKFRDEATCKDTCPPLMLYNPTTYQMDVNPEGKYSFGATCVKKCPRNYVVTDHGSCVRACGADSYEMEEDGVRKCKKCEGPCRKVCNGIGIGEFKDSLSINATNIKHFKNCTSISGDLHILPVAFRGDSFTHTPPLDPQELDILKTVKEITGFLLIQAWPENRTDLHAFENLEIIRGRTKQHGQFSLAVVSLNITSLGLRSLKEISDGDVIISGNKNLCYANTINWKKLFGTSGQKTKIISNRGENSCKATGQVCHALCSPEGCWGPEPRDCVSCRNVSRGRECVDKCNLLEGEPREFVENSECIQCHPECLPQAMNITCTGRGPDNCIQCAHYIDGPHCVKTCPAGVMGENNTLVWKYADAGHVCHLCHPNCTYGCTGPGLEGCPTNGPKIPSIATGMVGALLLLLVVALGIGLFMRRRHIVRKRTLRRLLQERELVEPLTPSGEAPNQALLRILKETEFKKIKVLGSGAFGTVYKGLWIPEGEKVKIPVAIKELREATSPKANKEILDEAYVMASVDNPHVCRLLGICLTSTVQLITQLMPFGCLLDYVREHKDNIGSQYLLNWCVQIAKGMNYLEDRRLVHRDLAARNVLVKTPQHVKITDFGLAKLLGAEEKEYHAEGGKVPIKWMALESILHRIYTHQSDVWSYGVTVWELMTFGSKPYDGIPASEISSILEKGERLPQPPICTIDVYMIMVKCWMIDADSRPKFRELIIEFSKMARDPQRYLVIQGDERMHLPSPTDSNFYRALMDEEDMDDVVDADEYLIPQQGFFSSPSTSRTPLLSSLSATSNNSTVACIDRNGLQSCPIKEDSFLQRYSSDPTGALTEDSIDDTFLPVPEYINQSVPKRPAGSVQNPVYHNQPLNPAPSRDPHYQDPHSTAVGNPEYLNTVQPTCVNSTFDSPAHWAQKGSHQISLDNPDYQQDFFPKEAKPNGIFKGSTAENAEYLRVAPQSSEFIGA
Assay: Z'-LYTE kinase selectivity assay EGFR
Format: biochemical

molecule	inhibition at 1 µM, %
C[C@@H]1Cc2nn(C)c(-c3ccccc3)c2-c2nc(Nc3ccn(CCN4CCN(C)CC4)n3)ncc21	65
C[C@@H]1Cc2nn(C)c(-c3ccccc3)c2-c2nc(Nc3ccn(CCN4CCN(CC(C)(C)O)CC4)n3)ncc21	72
C[C@@H]1Cc2nn(C)c(-c3ccccc3)c2-c2nc(Nc3ccn(CCN4CCN(CC5CCCO5)CC4)n3)ncc21 (stereo partly shown)	65
C[C@@H]1Cc2nn(C)c(-c3ccccc3)c2-c2nc(Nc3ccn(CCN4CCOCC4)n3)ncc21	68
COCCN1CCN(CCn2ccc(Nc3ncc4c(n3)-c3c(nn(C)c3-c3ccccc3)C[C@H]4C)n2)CC1	53
CC(O)CN1CCN(CCn2ccc(Nc3ncc4c(n3)-c3c(nn(C)c3-c3ccccc3)C[C@H]4C)n2)CC1 (stereo partly shown)	77
C[C@@H]1Cc2nn(C)c(-c3ccccc3)c2-c2nc(Nc3ccn(CCN4CCN(CC(=O)OC5CCOCC5)CC4)n3)ncc21	56
